B1: tRNA (parent)
chain: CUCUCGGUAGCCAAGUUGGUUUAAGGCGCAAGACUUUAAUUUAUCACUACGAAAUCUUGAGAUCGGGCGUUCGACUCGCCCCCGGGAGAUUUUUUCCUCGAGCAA

Variants of: B1
test: nonsense suppression (GFP-seq) (ratio to wild type); higher = more function; SUP4oc tRNA, yeast GFP reporter sort-seq
Fewer inactive variants are shown than the library holds.
Classification scheme (nonsense suppression): one (below 0.04), two (0.04 to below 0.2), three (0.2 or more)

## Task # bin label for A9G U16C G18U
## Result one

## Task # bin label for C11A A30G
## Result one

## Task # bin label for G26U A31G A54U U57C G73C
## Result one

## Task # bin label for A54C U57A
## Result one

## Task # bin label for C1U U71G
## Result one

## Task # bin label for A31U U63G
## Result two

## Task # bin label for U2A C34U
## Result one

## Task # bin label for U35G C68G C82U
## Result one

## Task # bin label for U22C G25C G32C A62C C64G
## Result one

## Task # bin label for U4C C27U
## Result three

## Task # bin label for U2C U57A
## Result one

## Task # bin label for U2C G88A
## Result one

## Task # bin label for C29G A87G
## Result one

## Task # bin label for G18C G88A
## Result two

## Task # bin label for U8C C80G
## Result one

## Task # bin label for U20C U21A
## Result two

## Task # bin label for U4G C79U
## Result two

## Task # bin label for `A13U`
## Result three

## Task # bin label for U17G U63A C75A G85A
## Result three
